Test: mitochondrial membrane potential change in A549 cells, profiling panel, cell-based, JC-1 fluorescence, basal, 24 h, 100 nL (AID 1138);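 also: A549 lung adenocarcinoma cells under basal conditions with no added stimulus; test concentration not given here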
Conditions: higher = more signal
For each of the molecules below, state its z-score.
Just the number, please, no unit after it.

In: # get_value(readout='z-score', item= `CCCC[C@@H](O)C1=C(C)C[C@H]2C(=O)N(C)C(=O)[C@H]2[C@H]1CO` )
Out: 1.52

In: # get_value(readout='z-score', item= CC1CC/C=C\[C@H]2OC34C=CCN(C(C)C)C(=O)[C@H]3N(C(CO)C(C)C)C(=O)[C@@H]4C2C(=O)O1 (some centres not stated) )
Out: 1.01

In: # get_value(readout='z-score', item= `C=CCN1C(=O)[C@]2(O[C@H](CCn3cc([C@H](O)c4ccccc4)nn3)[C@@H]([Si](C)(C)c3ccc(OC)cc3)[C@@H]2C)c2cc(N3CCOC3=O)ccc21` )
Out: 1.89

In: # get_value(readout='z-score', item= `COc1ccc(CCNC(=O)[C@@]2(Sc3ccc(C)cc3)CC(=O)N(Cc3ccccc3)[C@@H]2c2ccc(CO)cc2I)cc1` )
Out: 2.51

In: # get_value(readout='z-score', item= `C=CCN1C(=O)[C@@]2(O[C@@H](CCn3cc(CCO)nn3)[C@H]([Si](C)(C)c3ccc(OC)cc3)[C@H]2C)c2cc(NC(=O)c3ccc(OC)cc3)ccc21` )
Out: 2.77

In: # get_value(readout='z-score', item= `COC(=O)C(CC#Cc1ccc2c(c1)[C@]1(C(=O)N2)[C@H](C(=O)O)[C@H]2C(=O)O[C@H](c3ccccc3)[C@H](c3ccccc3)N2[C@@H]1c1ccc(OCCO)cc1)C(=O)OC` )
Out: -0.22

In: # get_value(readout='z-score', item= `CC(C)[Si](C#C[Si](C(C)C)(C(C)C)C(C)C)(O[C@H](C)c1cn([C@H](C)c2ccccc2)nn1)C(C)C` )
Out: 1.8
